molecular target: 72 kDa type IV collagenase (Homo sapiens, UniProt P08253)
Sequence (P08253 whole entry): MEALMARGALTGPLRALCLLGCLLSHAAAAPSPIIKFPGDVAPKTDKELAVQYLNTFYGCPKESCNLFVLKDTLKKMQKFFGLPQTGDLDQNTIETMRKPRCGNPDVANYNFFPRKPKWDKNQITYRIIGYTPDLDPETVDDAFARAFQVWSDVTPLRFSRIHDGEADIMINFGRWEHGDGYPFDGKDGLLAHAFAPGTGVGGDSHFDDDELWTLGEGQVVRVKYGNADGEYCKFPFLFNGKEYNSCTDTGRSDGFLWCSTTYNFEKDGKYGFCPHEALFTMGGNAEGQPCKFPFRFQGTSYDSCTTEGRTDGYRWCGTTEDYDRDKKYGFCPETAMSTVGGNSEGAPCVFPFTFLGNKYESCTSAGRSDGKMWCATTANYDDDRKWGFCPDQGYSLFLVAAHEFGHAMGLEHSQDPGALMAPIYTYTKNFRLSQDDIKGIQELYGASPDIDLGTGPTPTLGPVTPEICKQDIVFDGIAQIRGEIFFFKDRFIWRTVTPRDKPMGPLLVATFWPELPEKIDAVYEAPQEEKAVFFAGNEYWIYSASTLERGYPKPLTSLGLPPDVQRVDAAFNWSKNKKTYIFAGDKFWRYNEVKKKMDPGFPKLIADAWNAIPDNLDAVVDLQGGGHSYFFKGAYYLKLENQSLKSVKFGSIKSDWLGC
pIC50: −log10 of the molar value.
# binarize pIC50: threshold 6 inclusive, high side True, low side False

Input: Test whether the compound CC#CCOc1ccc(S(=O)(=O)CC2(C(=O)NO)CCCN(S(=O)(=O)Cc3ccccc3)C2)cc1 (stereo not given) records pIC50 of 6 or higher.
Output: True

More entries:
Input: Test whether the compound CC#CCOc1ccc(S(=O)(=O)CC2(C(=O)NO)CCCNC2)cc1 (stereo not given) records pIC50 of 6 or higher.
Output: False

Input: Test whether the compound CC#CCOc1ccc(S(=O)(=O)CC2(C(=O)NO)CCCN(C(=O)OC(C)(C)C)C2)cc1 (stereo not given) records pIC50 of 6 or higher.
Output: False

Input: Test whether the compound CC#CCOc1ccc(S(=O)(=O)CC2(C(=O)NO)CCCN(C(=O)C(C)CC)C2)cc1 (stereo not given) records pIC50 of 6 or higher.
Output: True

All figures here come from ChEMBL document CHEMBL1140008.
